Source listed as the supplement of paper PMC7125110.

B1: glmS ribozyme (parent)
chain: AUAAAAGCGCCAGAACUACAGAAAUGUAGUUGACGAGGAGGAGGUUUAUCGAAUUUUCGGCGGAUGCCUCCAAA

Variants of: B1
testDetails: self-cleavage kobs at 160 uM GlcN6P; higher = faster cleavage; RNA array
runParameters: with glucosamine-6-phosphate
This sample holds only a part of the variants without activity.
Here the recorded self-cleavage kobs at 160 uM GlcN6P is given for each entry.
endpointLabel: self-cleavage kobs at 160 uM GlcN6P

INSERT INTO results (mutation, endpointlabel, result) VALUES
  ('G7C U31C G43C C50U', 'self-cleavage kobs at 160 uM GlcN6P', '< 1e-05 s⁻¹'),
  ('G43U A53U', 'self-cleavage kobs at 160 uM GlcN6P', '< 1e-05 s⁻¹'),
  ('A64C C67G', 'self-cleavage kobs at 160 uM GlcN6P', '< 1e-05 s⁻¹'),
  ('C34A G43C', 'self-cleavage kobs at 160 uM GlcN6P', '< 1e-05 s⁻¹'),
  ('C8U G63A', 'self-cleavage kobs at 160 uM GlcN6P', '< 1e-05 s⁻¹'),
  ('G60U G62U', 'self-cleavage kobs at 160 uM GlcN6P', '< 1e-05 s⁻¹'),
  ('U2C G9U U56A C71U', 'self-cleavage kobs at 160 uM GlcN6P', '< 1e-05 s⁻¹'),
  ('G51A A52U', 'self-cleavage kobs at 160 uM GlcN6P', '< 1e-05 s⁻¹'),
  ('G35C U46A U56A C61U C68U', 'self-cleavage kobs at 160 uM GlcN6P', '< 1e-05 s⁻¹'),
  ('G41U G66C C68U', 'self-cleavage kobs at 160 uM GlcN6P', '< 1e-05 s⁻¹'),
  ('C16A G29C C58U', 'self-cleavage kobs at 160 uM GlcN6P', '< 1e-05 s⁻¹'),
  ('C34G A64G', 'self-cleavage kobs at 160 uM GlcN6P', '< 1e-05 s⁻¹'),
  ('G29C G62U', 'self-cleavage kobs at 160 uM GlcN6P', '< 1e-05 s⁻¹'),
  ('C10G C16U', 'self-cleavage kobs at 160 uM GlcN6P', '< 1e-05 s⁻¹'),
  ('A14G A39C G40U U46A A53C', 'self-cleavage kobs at 160 uM GlcN6P', '< 1e-05 s⁻¹'),
  ('A12G C34A C50A G60C', 'self-cleavage kobs at 160 uM GlcN6P', '< 1e-05 s⁻¹'),
  ('G41U U46G C61A', 'self-cleavage kobs at 160 uM GlcN6P', '< 1e-05 s⁻¹'),
  ('A42U U45G', 'self-cleavage kobs at 160 uM GlcN6P', '4.68e-05 s⁻¹'),
  ('G32C G35A', 'self-cleavage kobs at 160 uM GlcN6P', '< 1e-05 s⁻¹'),
  ('A15G U45A', 'self-cleavage kobs at 160 uM GlcN6P', '0.00318 s⁻¹'),
  ('G37A A48C', 'self-cleavage kobs at 160 uM GlcN6P', '< 1e-05 s⁻¹'),
  ('A14G A15U U30G', 'self-cleavage kobs at 160 uM GlcN6P', '0.00652 s⁻¹'),
  ('A14U U57C G66U', 'self-cleavage kobs at 160 uM GlcN6P', '< 1e-05 s⁻¹'),
  ('U55A C67U', 'self-cleavage kobs at 160 uM GlcN6P', '0.000667 s⁻¹'),
  ('G7A A48U C71U', 'self-cleavage kobs at 160 uM GlcN6P', '< 1e-05 s⁻¹'),
  ('C50G C61U C71U', 'self-cleavage kobs at 160 uM GlcN6P', '0.000138 s⁻¹'),
  ('C34U A39G', 'self-cleavage kobs at 160 uM GlcN6P', '< 1e-05 s⁻¹'),
  ('A33U G66U', 'self-cleavage kobs at 160 uM GlcN6P', '< 1e-05 s⁻¹'),
  ('A39C C50A', 'self-cleavage kobs at 160 uM GlcN6P', '< 1e-05 s⁻¹'),
  ('G9A G38C', 'self-cleavage kobs at 160 uM GlcN6P', '< 1e-05 s⁻¹'),
  ('G35C U54C G63A', 'self-cleavage kobs at 160 uM GlcN6P', '< 1e-05 s⁻¹'),
  ('G7U A12G', 'self-cleavage kobs at 160 uM GlcN6P', '< 1e-05 s⁻¹'),
  ('C8A U31G', 'self-cleavage kobs at 160 uM GlcN6P', '< 1e-05 s⁻¹'),
  ('C16U U55G U69G', 'self-cleavage kobs at 160 uM GlcN6P', '9.72e-05 s⁻¹'),
  ('G38U G62C', 'self-cleavage kobs at 160 uM GlcN6P', '< 1e-05 s⁻¹'),
  ('A12U U65G', 'self-cleavage kobs at 160 uM GlcN6P', '0.000303 s⁻¹'),
  ('U30G U47G', 'self-cleavage kobs at 160 uM GlcN6P', '0.000169 s⁻¹'),
  ('C8G A39U U69A', 'self-cleavage kobs at 160 uM GlcN6P', '< 1e-05 s⁻¹'),
  ('G13A G35U G66U C67G', 'self-cleavage kobs at 160 uM GlcN6P', '< 1e-05 s⁻¹'),
  ('C16U C70U', 'self-cleavage kobs at 160 uM GlcN6P', '0.000974 s⁻¹'),
  ('G37C G38A', 'self-cleavage kobs at 160 uM GlcN6P', '< 1e-05 s⁻¹'),
  ('G66A C70G', 'self-cleavage kobs at 160 uM GlcN6P', '7.92e-05 s⁻¹'),
  ('C58G C68G', 'self-cleavage kobs at 160 uM GlcN6P', '6.63e-05 s⁻¹'),
  ('G13A C50G', 'self-cleavage kobs at 160 uM GlcN6P', '0.000122 s⁻¹'),
  ('G51U A53C', 'self-cleavage kobs at 160 uM GlcN6P', '< 1e-05 s⁻¹'),
  ('C10A A39G', 'self-cleavage kobs at 160 uM GlcN6P', '< 1e-05 s⁻¹'),
  ('A6U A33C', 'self-cleavage kobs at 160 uM GlcN6P', '< 1e-05 s⁻¹'),
  ('A53G U55G', 'self-cleavage kobs at 160 uM GlcN6P', '0.00323 s⁻¹'),
  ('U31C U45A C67A', 'self-cleavage kobs at 160 uM GlcN6P', '0.000102 s⁻¹'),
  ('G29A A53C', 'self-cleavage kobs at 160 uM GlcN6P', '9.67e-05 s⁻¹');
